- test-settings: in isopropanol, 288.15 K
measured-endpoint: solubility (mole fraction)
One number for each entry.

**Q:** Look up solubility (mole fraction) for this molecule: Oc1ccc(OCc2ccccc2)cc1
**A:** 0.0383

---

- test-settings: in water, 313.15 K
measured-endpoint: solubility (mole fraction)
Give bare numbers.

**Q:** Look up solubility (mole fraction) for this compound: Oc1ccc(OCc2ccccc2)cc1
**A:** 3e-05

---

- test-settings: in n-propanol, 283.15 K
measured-endpoint: solubility (mole fraction)
Answers are plain numbers.

**Q:** Look up solubility (mole fraction) for this compound: Oc1ccc(OCc2ccccc2)cc1
**A:** 0.0287

---

- test-settings: in methanol, 288.15 K
measured-endpoint: solubility (mole fraction)
Give bare numbers.

**Q:** Look up solubility (mole fraction) for this compound: Oc1ccc(OCc2ccccc2)cc1
**A:** 0.0476

---

- test-settings: in n-propanol, 313.15 K
measured-endpoint: solubility (mole fraction)
Give bare numbers.

**Q:** Look up solubility (mole fraction) for this compound: Oc1ccc(OCc2ccccc2)cc1
**A:** 0.0994

---

- test-settings: in n-butanol, 298.15 K
measured-endpoint: solubility (mole fraction)

**Q:** Look up solubility (mole fraction) for this compound: Oc1ccc(OCc2ccccc2)cc1
**A:** 0.0434

---

- test-settings: in n-octanol, 308.15 K
measured-endpoint: solubility (mole fraction)
Numbers only.

**Q:** Look up solubility (mole fraction) for this molecule: Oc1ccc(OCc2ccccc2)cc1
**A:** 0.0289

---

- test-settings: in ethanol, 283.15 K
measured-endpoint: solubility (mole fraction)
Numbers only.

**Q:** Look up solubility (mole fraction) for this molecule: Oc1ccc(OCc2ccccc2)cc1
**A:** 0.0319

---

- test-settings: in water, 308.15 K
measured-endpoint: solubility (mole fraction)
Answers are plain numbers.

**Q:** Look up solubility (mole fraction) for this molecule: Oc1ccc(OCc2ccccc2)cc1
**A:** 2.3e-05

---

- test-settings: in ethanol, 298.15 K
measured-endpoint: solubility (mole fraction)
Give bare numbers.

**Q:** Look up solubility (mole fraction) for this compound: Oc1ccc(OCc2ccccc2)cc1
**A:** 0.0595

---

- test-settings: in acetonitrile, 293.15 K
measured-endpoint: solubility (mole fraction)
Answers are plain numbers.

**Q:** Look up solubility (mole fraction) for this compound: Oc1ccc(OCc2ccccc2)cc1
**A:** 0.0546

---

- test-settings: in n-propanol, 298.15 K
measured-endpoint: solubility (mole fraction)
Numbers only.

**Q:** Look up solubility (mole fraction) for this compound: Oc1ccc(OCc2ccccc2)cc1
**A:** 0.0521

---

- test-settings: in n-butanol, 308.15 K
measured-endpoint: solubility (mole fraction)
Numbers only.

**Q:** Look up solubility (mole fraction) for this molecule: Oc1ccc(OCc2ccccc2)cc1
**A:** 0.0666

---

- test-settings: in ethanol, 308.15 K
measured-endpoint: solubility (mole fraction)
Numbers only.

**Q:** Look up solubility (mole fraction) for this compound: Oc1ccc(OCc2ccccc2)cc1
**A:** 0.0905

---

- test-settings: in cyclohexane, 298.15 K
measured-endpoint: solubility (mole fraction)

**Q:** Look up solubility (mole fraction) for this compound: Oc1ccc(OCc2ccccc2)cc1
**A:** 0.00261

---

- test-settings: in n-propanol, 303.15 K
measured-endpoint: solubility (mole fraction)
Numbers only.

**Q:** Look up solubility (mole fraction) for this molecule: Oc1ccc(OCc2ccccc2)cc1
**A:** 0.0642
